Tested on: S. ruminantium
Assay type: cell-based
measurementContext: strain GA192; Table IV (separate study)
Kindly supply the reported Minimal Inhibitory Concentration (bioactivity data) values for the records listed here.
Give bare numbers.

[[record]]
compound = "C=C(NC(=O)C(=C)NC(=O)C(=C)NC(=O)c1ccc2c(n1)-c1coc(n1)C(=C)NC(=O)C(=C)NC(=O)c1nc(oc1C)/C(=C/C)NC(=O)c1csc(n1)C(OC)NC(=O)c1nc(oc1C)/C(=C/C(C)O)NC(=O)[C@H]([C@@H](C)O)NC(=O)c1csc-2n1)C(N)=O (stereo partly drawn) [Antibiotic 10381b, sulfomycin I, reference compound]"
observedmeasurement = 1.6


For every record below, what is its Minimal Inhibitory Concentration (bioactivity data)?
1. C=C(NC(=O)C(=C)NC(=O)C(=C)NC(=O)c1ccc2c(n1)-c1coc(n1)C(=C)NC(=O)C(=C)NC(=O)c1nc(oc1C)C(=CC)NC(=O)c1csc(n1)CNC(=O)c1nc(oc1C)C(=CC(C)O)NC(=O)C(C(C)O)NC(=O)c1csc-2n1)C(N)=O (stereo not drawn) [Antibiotic 10381pre-b]
2. C=C(NC(=O)C(=C)NC(=O)C(=C)NC(=O)c1ccc2c(n1)-c1nc(oc1C)C(C)NC(=O)c1csc(n1)C(C)NC(=O)c1nc(oc1C)CNC(=O)C(C(C)C)NC(=O)c1csc-2n1)C(N)=O (stereo not drawn) [Antibiotic 10381x]
3. C=C1NC(=O)c2nc(oc2C)C(=CC)NC(=O)c2csc(n2)C(OC)NC(=O)c2nc(oc2C)C(=CC(C)O)NC(=O)C(C(C)O)NC(=O)c2csc(n2)-c2ccc(C(N)=O)nc2-c2coc(n2)C(=C)NC1=O (stereo not drawn) [Antibiotic 10381v]
4. C=C(NC(=O)c1ccc2c(n1)-c1nc(oc1C)C(C)NC(=O)c1csc(n1)C(C)NC(=O)c1nc(oc1C)CNC(=O)C(C(C)C)NC(=O)c1csc-2n1)C(N)=O (stereo not drawn) [Antibiotic 10381w]

1. 6.3
2. 6.3
3. 100
4. 12.5

---

Tested on: P. ruminicola
Assay type: cell-based
measurementContext: strain 118B; Table IV (separate study)
Kindly supply the reported Minimal Inhibitory Concentration (bioactivity data) values for the records listed here.

For every record below, what is its Minimal Inhibitory Concentration (bioactivity data)?
1. C=C(NC(=O)C(=C)NC(=O)C(=C)NC(=O)c1ccc2c(n1)-c1nc(oc1C)C(C)NC(=O)c1csc(n1)C(C)NC(=O)c1nc(oc1C)CNC(=O)C(C(C)C)NC(=O)c1csc-2n1)C(N)=O (stereo not drawn) [Antibiotic 10381x]
2. C=C(NC(=O)c1ccc2c(n1)-c1coc(n1)C(=C)NC(=O)C(=C)NC(=O)c1nc(oc1C)C(=CC)NC(=O)c1csc(n1)C(OC)NC(=O)c1nc(oc1C)C(=CC(C)O)NC(=O)C(C(C)O)NC(=O)c1csc-2n1)C(N)=O (stereo not drawn) [Antibiotic 10381y]
3. C=C(NC(=O)C(=C)NC(=O)C(=C)NC(=O)c1ccc2c(n1)-c1coc(n1)C(=C)NC(=O)C(=C)NC(=O)c1nc(oc1C)C(=CC)NC(=O)c1csc(n1)CNC(=O)c1nc(oc1C)C(=CC(C)O)NC(=O)C(C(C)O)NC(=O)c1csc-2n1)C(N)=O (stereo not drawn) [Antibiotic 10381pre-b]

1: 12.5; 2: < 0.2; 3: < 0.2

For every record below, what is its Minimal Inhibitory Concentration (bioactivity data)?
1. C=C(NC(=O)c1ccc2c(n1)-c1nc(oc1C)C(C)NC(=O)c1csc(n1)C(C)NC(=O)c1nc(oc1C)CNC(=O)C(C(C)C)NC(=O)c1csc-2n1)C(N)=O (stereo not drawn) [Antibiotic 10381w]
2. C=C(NC(=O)C(=C)NC(=O)C(=C)NC(=O)c1ccc2c(n1)-c1coc(n1)C(=C)NC(=O)C(=C)NC(=O)c1nc(oc1C)/C(=C/C)NC(=O)c1csc(n1)C(OC)NC(=O)c1nc(oc1C)/C(=C/C(C)O)NC(=O)[C@H]([C@@H](C)O)NC(=O)c1csc-2n1)C(N)=O (stereo partly drawn) [Antibiotic 10381b, sulfomycin I, reference compound]
3. C=C1NC(=O)c2nc(oc2C)C(=CC)NC(=O)c2csc(n2)C(OC)NC(=O)c2nc(oc2C)C(=CC(C)O)NC(=O)C(C(C)O)NC(=O)c2csc(n2)-c2ccc(C(N)=O)nc2-c2coc(n2)C(=C)NC1=O (stereo not drawn) [Antibiotic 10381v]

1: < 0.2; 2: < 0.2; 3: < 0.2
